B1: NP_006221.1 (parent)
chain: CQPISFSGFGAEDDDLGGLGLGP

- Variants of: B1
- Assay comment: protein stability index of a GFP-peptide fusion (GPS, HEK-293T) (PSI 1-6); higher = more stable;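 note: lentivirally expressed fusion library, cells FACS-sorted into six equal-sized GFP/DsRed ratio bins, PSI computed from sequencing read fractions per bin weighted by bin number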
- Applied conditions: c terminus: native
Readout name: protein stability index

Mutation code	Assay result
A11T	2.26
F6Q	4.21
L16V	2.36
G20H	2.93
S7V	2.07
F6S	3.93

For each of the items listed, what is its protein stability index?
1. E12D
2. A11N
3. A11P
4. A11L

a:
1. 2.22
2. 2.09
3. 2.17
4. 1.81

For each of the items listed, what is its protein stability index?
1. Q2Y
2. C1K

a:
2.09
2.06

For each of the items listed, what is its protein stability index?
1. F9R
2. G8C
3. G20P
4. G17L
5. G18D
6. P23Y
7. C1T
8. D15M

a:
1. 2.04
2. 1.96
3. 3.11
4. 2.2
5. 2.19
6. 2.25
7. 2.14
8. 2.47

For each of the items listed, what is its protein stability index?
1. G8T
2. C1W

a:
2.34
1.91
